compounds and their reported Abs.max., second of two maxima (absorption maximum)
# protocolSummary: Absorption maximum after colour development in a photographic silver halide layer according to Use Example I
# Assay type: physicochemical
# details: pyrazolone coupling agents
testReadout: Abs.max., second of two maxima (absorption maximum)

compound	val
CCOP(=O)(CCCOc1ccc(NC2=NN(c3c(Cl)cc(Cl)cc3Cl)C(=O)C2)cc1)OCC	530 nm
CCCCC(CC)COP(=O)(CCCOc1cccc(C(=O)Nc2cccc(C(=O)NC3=NN(c4ccccc4)C(=O)C3)c2)c1)OCC(CC)CCCC (stereo not shown)	532 nm
CCCCC(CC)COP(=O)(CCCOc1cccc(C(=O)Nc2cccc(NC3=NN(c4ccccc4)C(=O)C3)c2)c1)OCC(CC)CCCC (stereo not shown)	528 nm
CCCCOP(=O)(CCCOc1cccc(C(=O)Nc2cccc(NC3=NN(c4ccc(S(=O)(=O)N(CC)CC)cc4)C(=O)C3)c2)c1)OCCCC	538 nm
